Target: human Izumo1_(22-254), wild type (human, UniProt Q8IYV9-1 22-254)
Sequence (Q8IYV9 22-254): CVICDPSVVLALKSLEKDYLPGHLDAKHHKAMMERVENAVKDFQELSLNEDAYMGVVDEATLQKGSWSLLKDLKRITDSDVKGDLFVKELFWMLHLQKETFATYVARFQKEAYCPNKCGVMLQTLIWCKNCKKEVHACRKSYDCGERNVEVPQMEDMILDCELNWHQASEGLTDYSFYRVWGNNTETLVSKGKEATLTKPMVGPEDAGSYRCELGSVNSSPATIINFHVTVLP
Assay: BLI
pKd: −log10 of the molar value.

[
  {
    "Binder": "L81A Juno_(20-228) (domain or fragment, human, UniProt A6ND01-1 20-228, looked up, biotinylated with the EZ link sulfo-NHS-LC-biotinylation kit (BLI)) GDELLNICMNAKHHKRVPSPEDKLYEECIPWKDNACCTLTTSWEAHLDVSPLYNFSLFHCGALMPGCRKHFIQAICFYECSPNLGPWIQPVGSLGWEVAPSGQGERVVNVPLCQEDCEEWWEDCRMSYTCKSNWRGGWDWSQGKNRCPKGAQCLPFSHYFPTPADLCEKTWSNSFKASPERRNSGRCLQKWFEPAQGNPNVAVARLFAS",
    "pKd": 5.04
  }
]
